- subject_of_test: UniProt P34969
endpoint: Ki (nM)
Numbers only; they are read as nM.

Exam item: Could you share what Ki was measured for CNc1cc(OC)c(C(=O)N[C@H]2CCN(Cc3ccccc3)[C@H]2C)cc1Cl [cis (S,S) nemonapride] , tested on UniProt P34969?
Marked response: 117

###

- subject_of_test: human Serotonin 5-HT7A receptor (Homo sapiens)
- Construct: expressed in transfected cells; host or cells: CHO-K1
- Sequence (P34969 1-445 isoform P34969-2): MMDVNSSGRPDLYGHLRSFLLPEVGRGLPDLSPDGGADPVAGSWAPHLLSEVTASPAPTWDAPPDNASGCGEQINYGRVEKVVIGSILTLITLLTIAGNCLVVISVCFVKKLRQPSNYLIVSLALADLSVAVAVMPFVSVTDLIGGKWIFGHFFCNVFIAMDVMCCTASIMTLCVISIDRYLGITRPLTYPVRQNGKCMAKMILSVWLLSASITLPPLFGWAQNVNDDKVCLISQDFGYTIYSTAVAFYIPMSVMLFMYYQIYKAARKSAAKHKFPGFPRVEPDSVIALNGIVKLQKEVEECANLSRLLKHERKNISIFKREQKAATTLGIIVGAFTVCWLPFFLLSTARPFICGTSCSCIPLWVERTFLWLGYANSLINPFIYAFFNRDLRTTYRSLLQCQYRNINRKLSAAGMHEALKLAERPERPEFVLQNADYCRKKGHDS
- assay_method_text: cAMP HTRF functional assay, antagonist mode
- Assay type: cell-based
endpoint: IC50 (nM)
Report the figure in nM without appending any unit label.

Exam item: Sample [2H]C([2H])([2H])Nc1cc(OC)c(C(=O)N[C@H]2CCN(C([2H])([2H])c3ccccc3)[C@H]2C)cc1Cl — what was its IC50?
Marked response: 2240

Values from patent US12606523B2
